The reader will find reported inhibition at 1 h, 30 µM values listed item by item below.
- measuredOn: P-glycoprotein (ABCB1) (Homo sapiens)
- measurementNotes: Inhibition of human P-glycoprotein transfected in pig LLC-GA5-COL150 cells assessed as quinidine transport from apical to basolateral side at 30 uM preincubated for 30 mins followed by quinidine addition to apical side measured after 60 mins
- Format: cell-based
- studyConditions: LLC-PK1, probe quinidine
propertyMeasured: inhibition at 1 h, 30 µM

structureSmiles | reportedResult
COc1ccccc1C(=O)NN(C(=O)c1ccccc1Cl)C(C)(C)C | 6.7%
CC(C)(C)N(NC(=O)c1ccccc1Br)C(=O)c1ccccc1Cl | 10.1%
Cc1cccc(C(=O)NN(C(=O)c2ccccc2Cl)C(C)(C)C)c1C | 9.3%

---

- measuredOn: ATP-dependent translocase ABCB1 (Homo sapiens)
- Sequence (P08183 whole entry): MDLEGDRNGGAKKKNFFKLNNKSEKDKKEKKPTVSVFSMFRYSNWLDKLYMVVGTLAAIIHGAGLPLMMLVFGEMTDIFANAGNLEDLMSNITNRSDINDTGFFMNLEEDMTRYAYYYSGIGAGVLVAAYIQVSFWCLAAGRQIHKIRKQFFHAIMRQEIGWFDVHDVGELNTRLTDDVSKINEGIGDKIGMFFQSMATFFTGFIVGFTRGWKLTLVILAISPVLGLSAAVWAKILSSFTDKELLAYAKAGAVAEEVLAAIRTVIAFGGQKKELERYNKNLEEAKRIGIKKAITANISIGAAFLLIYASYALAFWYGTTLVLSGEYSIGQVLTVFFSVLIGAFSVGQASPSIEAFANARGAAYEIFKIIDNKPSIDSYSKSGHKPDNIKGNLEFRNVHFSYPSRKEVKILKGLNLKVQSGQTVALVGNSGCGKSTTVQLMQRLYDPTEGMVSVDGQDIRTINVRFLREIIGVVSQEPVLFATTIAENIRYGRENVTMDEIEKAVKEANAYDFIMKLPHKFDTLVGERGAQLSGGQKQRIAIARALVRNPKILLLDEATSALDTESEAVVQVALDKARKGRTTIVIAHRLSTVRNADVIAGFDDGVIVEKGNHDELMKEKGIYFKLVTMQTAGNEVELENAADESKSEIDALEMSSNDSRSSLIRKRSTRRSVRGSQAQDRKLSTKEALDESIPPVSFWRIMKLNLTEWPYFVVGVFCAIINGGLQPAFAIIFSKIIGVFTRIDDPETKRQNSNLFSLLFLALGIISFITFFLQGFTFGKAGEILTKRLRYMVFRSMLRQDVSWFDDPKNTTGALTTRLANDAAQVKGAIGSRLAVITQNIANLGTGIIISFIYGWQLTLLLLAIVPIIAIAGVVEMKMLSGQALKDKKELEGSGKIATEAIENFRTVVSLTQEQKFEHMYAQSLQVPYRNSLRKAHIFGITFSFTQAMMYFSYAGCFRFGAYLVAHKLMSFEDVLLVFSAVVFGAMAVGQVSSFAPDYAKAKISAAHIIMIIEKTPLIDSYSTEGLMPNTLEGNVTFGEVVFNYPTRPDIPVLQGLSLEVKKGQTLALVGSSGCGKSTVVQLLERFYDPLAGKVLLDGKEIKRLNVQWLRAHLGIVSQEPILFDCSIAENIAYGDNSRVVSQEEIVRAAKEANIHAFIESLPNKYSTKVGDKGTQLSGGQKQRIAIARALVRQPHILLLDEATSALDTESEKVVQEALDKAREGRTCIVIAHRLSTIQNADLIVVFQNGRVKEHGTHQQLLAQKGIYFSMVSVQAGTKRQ
- measurementNotes: Inhibition of human P-glycoprotein transfected in pig LLC-GA5-COL150 cells assessed as quinidine transport from apical to basolateral side preincubated for 30 mins followed by quinidine addition to apical side measured after 60 mins
- Type: cell-based
- Parameters: scale not given here
- studyConditions: human, llc-ga5-col150, 1 h
propertyMeasured: log(activity)

molecule | measuredOn | reportedResult
Cc1cc(C)cc(C(=O)N(NC(=O)c2ccccc2C)C(C)(C)C)c1 | ATP-dependent translocase ABCB1 (Homo sapiens) | -0.54
Cc1cccc(C(=O)NN(C(=O)c2ccccc2Cl)C(C)(C)C)c1C | ATP-dependent translocase ABCB1 (Homo sapiens) | -0.99
Cc1cc(C)cc(C(=O)N(NC(=O)c2cccc(C)c2C)C(C)(C)C)c1 | ATP-dependent translocase ABCB1 (Homo sapiens) | -0.16
CC(C)(C)N(NC(=O)c1c(F)cccc1F)C(=O)c1ccccc1Cl | ATP-dependent translocase ABCB1 (Homo sapiens) | -1.36
COc1cccc(C(=O)NN(C(=O)c2ccccc2Cl)C(C)(C)C)c1 | ATP-dependent translocase ABCB1 (Homo sapiens) | -0.92
Cc1cc(C)cc(C(=O)N(NC(=O)c2ccc(Cl)cc2)C(C)(C)C)c1 | ATP-dependent translocase ABCB1 (Homo sapiens) | -0.78
CC(C)(C)N(NC(=O)c1cccc(Cl)c1Cl)C(=O)c1ccccc1Cl | ATP-dependent translocase ABCB1 (Homo sapiens) | -0.09
Cc1cc(C)cc(C(=O)N(NC(=O)c2ccccc2)C(C)(C)C)c1 | ATP-dependent translocase ABCB1 (Homo sapiens) | -0.69
Cc1ccc(C(=O)NN(C(=O)c2ccccc2Cl)C(C)(C)C)cc1C | ATP-dependent translocase ABCB1 (Homo sapiens) | -0.58
CC(C)(C)N(NC(=O)c1c(F)cccc1Cl)C(=O)c1ccccc1Cl | ATP-dependent translocase ABCB1 (Homo sapiens) | -1.13
CC(C)(C)N(NC(=O)c1cccc(Cl)c1)C(=O)c1ccccc1Cl | ATP-dependent translocase ABCB1 (Homo sapiens) | -0.43
COc1cccc(C(=O)NN(C(=O)c2cc(C)cc(C)c2)C(C)(C)C)c1 | ATP-dependent translocase ABCB1 (Homo sapiens) | -0.28
CC(C)(C)N(NC(=O)c1cccc([N+](=O)[O-])c1)C(=O)c1ccccc1Cl | ATP-dependent translocase ABCB1 (Homo sapiens) | -0.7
Cc1cc(C)cc(C(=O)N(NC(=O)c2ccc(C)c(C)c2C)C(C)(C)C)c1 | ATP-dependent translocase ABCB1 (Homo sapiens) | 0.07
CC(C)(C)N(NC(=O)c1ccccc1I)C(=O)c1ccccc1Cl | ATP-dependent translocase ABCB1 (Homo sapiens) | -0.55
COc1ccccc1C(=O)NN(C(=O)c1ccccc1Cl)C(C)(C)C | ATP-dependent translocase ABCB1 (Homo sapiens) | -1.14
Cc1ccc(C(=O)NN(C(=O)c2ccccc2Cl)C(C)(C)C)cc1 | ATP-dependent translocase ABCB1 (Homo sapiens) | -1.1
Cc1cccc(C(=O)NN(C(=O)c2ccccc2Cl)C(C)(C)C)c1 | ATP-dependent translocase ABCB1 (Homo sapiens) | -0.89
COc1cccc(C(=O)NN(C(=O)c2ccccc2Cl)C(C)(C)C)c1C | ATP-dependent translocase ABCB1 (Homo sapiens) | -0.86
CC(C)(C)N(NC(=O)c1ccccc1)C(=O)c1ccccc1Cl | ATP-dependent translocase ABCB1 (Homo sapiens) | -1.25
CC(C)(C)N(NC(=O)c1c(Cl)cccc1Cl)C(=O)c1ccccc1Cl | ATP-dependent translocase ABCB1 (Homo sapiens) | -1.21
COc1ccc(C(=O)NN(C(=O)c2ccccc2Cl)C(C)(C)C)cc1 | ATP-dependent translocase ABCB1 (Homo sapiens) | -1.13
COc1cccc(C(=O)NN(C(=O)c2cc(C)cc(C)c2)C(C)(C)C)c1C [METHOXYFENOZIDE] | ATP-dependent translocase ABCB1 (Homo sapiens) | -0.33

---

- measuredOn: P-glycoprotein (ABCB1) (Homo sapiens, UniProt P08183)
- Sequence (P08183 whole entry): as above
- measurementNotes: Inhibition of human P-glycoprotein transfected in pig LLC-GA5-COL150 cells assessed as quinidine transport from apical to basolateral side at 30 uM preincubated for 30 mins followed by quinidine addition to apical side measured after 60 mins
- Format: cell-based
- studyConditions: LLC-PK1, probe quinidine
Use inhibition at 1 h, 30 µM to assign classes; range list: low (below 7%), intermediate (7% to below 40%), high (40% or more)

compound | measuredOn | assignedCategory
CC(C)(C)N(NC(=O)c1ccc(C#N)cc1)C(=O)c1ccccc1Cl | P-glycoprotein (ABCB1) (Homo sapiens, UniProt P08183) | low
CC(C)(C)N(NC(=O)c1cccc(Cl)c1Cl)C(=O)c1ccccc1Cl | P-glycoprotein (ABCB1) (Homo sapiens, UniProt P08183) | high
CCc1ccc(C(=O)NN(C(=O)c2cc(C)cc(C)c2)C(C)(C)C)cc1 [TEBUFENOZIDE] | P-glycoprotein (ABCB1) (Homo sapiens, UniProt P08183) | high
Cc1cc(C)cc(C(=O)N(NC(=O)c2cccc(O)c2C)C(C)(C)C)c1 | P-glycoprotein (ABCB1) (Homo sapiens, UniProt P08183) | low
CC(C)(C)N(NC(=O)c1cccc(I)c1)C(=O)c1ccccc1Cl | P-glycoprotein (ABCB1) (Homo sapiens, UniProt P08183) | high
CC(C)(C)N(NC(=O)c1cccc(C#N)c1)C(=O)c1ccccc1Cl | P-glycoprotein (ABCB1) (Homo sapiens, UniProt P08183) | intermediate
CC(C)(C)N(NC(=O)c1ccccc1[N+](=O)[O-])C(=O)c1ccccc1Cl | P-glycoprotein (ABCB1) (Homo sapiens, UniProt P08183) | low
Cc1ccc(C(=O)NN(C(=O)c2cc(C)cc(C)c2)C(C)(C)C)cc1 | P-glycoprotein (ABCB1) (Homo sapiens, UniProt P08183) | intermediate
CCOc1cccc(C(=O)NN(C(=O)c2cc(C)cc(C)c2)C(C)(C)C)c1 | P-glycoprotein (ABCB1) (Homo sapiens, UniProt P08183) | high
CC(C)(C)N(NC(=O)c1ccccc1I)C(=O)c1ccccc1Cl | P-glycoprotein (ABCB1) (Homo sapiens, UniProt P08183) | intermediate
Cc1cccc(C(=O)NN(C(=O)c2ccccc2Cl)C(C)(C)C)c1 | P-glycoprotein (ABCB1) (Homo sapiens, UniProt P08183) | intermediate

---

The reader will find reported logP values listed item by item below.
- measurementNotes: Lipophilicity , logP of the compound
- Format: physicochemical
- studyConditions: octanol/water
propertyMeasured: logP

structureSmiles | propertyMeasured | reportedResult
CC(C)(C)N(NC(=O)c1cc(Cl)ccc1Cl)C(=O)c1ccccc1Cl | logP | 3.75
CC(C)(C)N(NC(=O)c1ccc(Cl)cc1Cl)C(=O)c1ccccc1Cl | logP | 3.71
Cc1ccc(C(=O)NN(C(=O)c2ccccc2Cl)C(C)(C)C)cc1C | logP | 3.65
Cc1cc(C)cc(C(=O)N(NC(=O)c2cccc(O)c2)C(C)(C)C)c1 | logP | 3.34
CC(C)(C)N(NC(=O)c1c(Cl)cccc1Cl)C(=O)c1ccccc1Cl | logP | 3.03

---

- measuredOn: P-glycoprotein (ABCB1) (Homo sapiens, UniProt P08183)
- measurementNotes: Inhibition of human P-glycoprotein transfected in pig LLC-GA5-COL150 cells assessed as quinidine transport from apical to basolateral side at 30 uM preincubated for 30 mins followed by quinidine addition to apical side measured after 60 mins
- Type: cell-based
- studyConditions: LLC-PK1, probe quinidine
The reader will find reported inhibition at 1 h, 30 µM values listed item by item below.

structureSmiles | inhibition at 1 h, 30 µM (%)
COc1ccc(C(=O)NN(C(=O)c2ccccc2Cl)C(C)(C)C)cc1 | 6.9
CC(C)(C)N(NC(=O)c1ccc(Cl)cc1Cl)C(=O)c1ccccc1Cl | 40.7
CSc1ccccc1C(=O)NN(C(=O)c1ccccc1Cl)C(C)(C)C | 7
Cc1cc(C)cc(C(=O)N(NC(=O)c2cccc(C)c2C)C(C)(C)C)c1 | 41.1
